# Tested on: MYB
# assayComment: 3' UTR reporter interaction score (median-centred robust z-score of log2 firefly/Renilla activity); higher = less repression of the 3' UTR reporter
# assayConditions: HEK293T; 48 h
assayMetric: 3' UTR reporter interaction score
Could you respond with only the numeric value?

As a guide, the following entries are already answered.
orderedResidues	assayMetric	value
CUCUAGAGGGAAGCGCUUUCUGUU	3' UTR reporter interaction score	1.71
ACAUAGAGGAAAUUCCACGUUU	3' UTR reporter interaction score	-0.866
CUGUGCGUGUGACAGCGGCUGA	3' UTR reporter interaction score	1.02
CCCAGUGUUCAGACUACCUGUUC	3' UTR reporter interaction score	1.64

## Input What 3' UTR reporter interaction score value was documented for this sequence, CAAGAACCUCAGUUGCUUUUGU ?
## Output 0.335

## Input What 3' UTR reporter interaction score value was documented for this sequence, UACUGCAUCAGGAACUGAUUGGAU ?
## Output -0.822

## Input What 3' UTR reporter interaction score value was documented for this sequence, AGCUGUCUGAAAAUGUCUU ?
## Output -0.536

## Input What 3' UTR reporter interaction score value was documented for this sequence, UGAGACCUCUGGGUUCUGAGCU ?
## Output -1.3

* * *

# System: RB1
# assayComment: 3' UTR reporter interaction score (median-centred robust z-score of log2 firefly/Renilla activity); higher = less repression of the 3' UTR reporter
# assayConditions: HEK293T; 48 h
Listed next: entries and their corresponding 3' UTR reporter interaction score.

As a guide, the following entries are already answered.
orderedResidues	targetOrSystem	assayMetric	value
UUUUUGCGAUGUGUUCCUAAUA	RB1	3' UTR reporter interaction score	-2.29
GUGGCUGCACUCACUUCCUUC	RB1	3' UTR reporter interaction score	1.44
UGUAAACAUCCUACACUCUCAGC	RB1	3' UTR reporter interaction score	0.235
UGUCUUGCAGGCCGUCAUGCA	RB1	3' UTR reporter interaction score	1.34
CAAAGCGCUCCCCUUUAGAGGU	RB1	3' UTR reporter interaction score	-1.27
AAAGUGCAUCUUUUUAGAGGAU	RB1	3' UTR reporter interaction score	-0.176

## Input What 3' UTR reporter interaction score value was documented for this sequence, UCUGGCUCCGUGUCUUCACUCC ?
## Output 0.119

## Input What 3' UTR reporter interaction score value was documented for this sequence, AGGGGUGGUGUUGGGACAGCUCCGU ?
## Output 0.429

## Input What 3' UTR reporter interaction score value was documented for this sequence, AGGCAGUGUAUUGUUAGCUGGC ?
## Output -1.56

## Input What 3' UTR reporter interaction score value was documented for this sequence, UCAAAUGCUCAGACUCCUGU ?
## Output 1.29

## Input What 3' UTR reporter interaction score value was documented for this sequence, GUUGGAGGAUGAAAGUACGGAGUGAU ?
## Output 0.55

## Input What 3' UTR reporter interaction score value was documented for this sequence, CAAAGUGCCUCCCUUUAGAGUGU ?
## Output -0.937

## Input What 3' UTR reporter interaction score value was documented for this sequence, ACAGCAGGCACAGACAGGCAG ?
## Output 0.215

## Input What 3' UTR reporter interaction score value was documented for this sequence, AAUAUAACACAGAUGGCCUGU ?
## Output -1.07

## Input What 3' UTR reporter interaction score value was documented for this sequence, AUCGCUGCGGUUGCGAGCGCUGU ?
## Output -0.265

## Input What 3' UTR reporter interaction score value was documented for this sequence, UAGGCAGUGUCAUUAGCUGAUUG ?
## Output -0.567

## Input What 3' UTR reporter interaction score value was documented for this sequence, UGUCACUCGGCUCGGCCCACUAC ?
## Output -0.766

## Input What 3' UTR reporter interaction score value was documented for this sequence, GGGCGCCUGUGAUCCCAAC ?
## Output -0.433

## Input What 3' UTR reporter interaction score value was documented for this sequence, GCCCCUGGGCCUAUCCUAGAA ?
## Output 0.411

## Input What 3' UTR reporter interaction score value was documented for this sequence, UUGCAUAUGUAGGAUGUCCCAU ?
## Output -0.812

## Input What 3' UTR reporter interaction score value was documented for this sequence, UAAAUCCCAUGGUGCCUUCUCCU ?
## Output 0.989

## Input What 3' UTR reporter interaction score value was documented for this sequence, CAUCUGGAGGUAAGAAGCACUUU ?
## Output 0.4

* * *

Listed next: entries and their corresponding 3' UTR reporter interaction score.
# Test system: NOTCH1
# assayComment: 3' UTR reporter interaction score (median-centred robust z-score of log2 firefly/Renilla activity); higher = less repression of the 3' UTR reporter
# assayConditions: HEK293T; 48 h
Could you respond with only the numeric value?

As a guide, the following entries are already answered.
orderedResidues	value
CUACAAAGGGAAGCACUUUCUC	0.148
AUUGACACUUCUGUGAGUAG	-0.955
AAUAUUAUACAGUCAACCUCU	3.57

## Input Query for NOTCH1: what 3' UTR reporter interaction score does the record show for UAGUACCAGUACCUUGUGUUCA ?
## Output -0.471

## Input Query for NOTCH1: what 3' UTR reporter interaction score does the record show for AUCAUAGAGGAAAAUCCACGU ?
## Output 0.241

## Input Query for NOTCH1: what 3' UTR reporter interaction score does the record show for GAUGAGCUCAUUGUAAUAUG ?
## Output -0.218

## Input Query for NOTCH1: what 3' UTR reporter interaction score does the record show for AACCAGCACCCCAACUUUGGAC ?
## Output -0.388

## Input Query for NOTCH1: what 3' UTR reporter interaction score does the record show for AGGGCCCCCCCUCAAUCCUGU ?
## Output -0.584

## Input Query for NOTCH1: what 3' UTR reporter interaction score does the record show for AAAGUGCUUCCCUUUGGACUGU ?
## Output 1.13

* * *

Listed next: entries and their corresponding 3' UTR reporter interaction score.
# Tested on: ZEB2
# assayComment: 3' UTR reporter interaction score (median-centred robust z-score of log2 firefly/Renilla activity); higher = less repression of the 3' UTR reporter
# assayConditions: HEK293T; 48 h

As a guide, the following entries are already answered.
orderedResidues	3' UTR reporter interaction score
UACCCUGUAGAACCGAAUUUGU	-1.8
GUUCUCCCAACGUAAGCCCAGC	-0.194
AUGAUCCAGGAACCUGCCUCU	-0.647
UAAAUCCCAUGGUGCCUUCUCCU	-0.698
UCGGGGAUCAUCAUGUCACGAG	1.06
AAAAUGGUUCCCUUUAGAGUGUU	-1.19
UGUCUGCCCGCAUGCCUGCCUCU	-0.366

## Input What 3' UTR reporter interaction score value was documented for this sequence, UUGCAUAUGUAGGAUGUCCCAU ?
## Output -4.28

* * *

# Test system: TP53
# assayComment: 3' UTR reporter interaction score (median-centred robust z-score of log2 firefly/Renilla activity); higher = less repression of the 3' UTR reporter
# assayConditions: HEK293T; 48 h
Each record's class is read off its 3' UTR reporter interaction score using these ranges: bucket A: < -0.3; bucket B: ≥ -0.3 and < 0.4; bucket C: ≥ 0.4

orderedResidues	assignedClass
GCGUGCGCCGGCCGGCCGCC	bucket C
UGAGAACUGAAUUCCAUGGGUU	bucket B

Attention now turns to another entry.
## Input Which bin, given its 3' UTR reporter interaction score, does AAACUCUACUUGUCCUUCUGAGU occupy?
## Output bucket C

* * *

# Tested on: BRCA2
# assayComment: 3' UTR reporter interaction score (median-centred robust z-score of log2 firefly/Renilla activity); higher = less repression of the 3' UTR reporter
# assayConditions: HEK293T; 48 h
Listed next: entries and their corresponding 3' UTR reporter interaction score.
Could you respond with only the numeric value?

As a guide, the following entries are already answered.
orderedResidues	targetOrSystem	3' UTR reporter interaction score
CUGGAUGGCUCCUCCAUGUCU	BRCA2	-1.72
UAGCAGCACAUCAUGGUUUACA	BRCA2	-0.138
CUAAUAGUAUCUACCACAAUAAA	BRCA2	0.274
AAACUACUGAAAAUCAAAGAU	BRCA2	0.536

## Input What 3' UTR reporter interaction score value was documented for this sequence, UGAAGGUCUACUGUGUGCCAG ?
## Output -0.173

## Input What 3' UTR reporter interaction score value was documented for this sequence, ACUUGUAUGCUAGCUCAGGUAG ?
## Output 0.171

## Input What 3' UTR reporter interaction score value was documented for this sequence, UUGGUCCCCUUCAACCAGCUGU ?
## Output 0.152

## Input What 3' UTR reporter interaction score value was documented for this sequence, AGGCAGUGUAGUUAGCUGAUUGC ?
## Output 0.647

## Input What 3' UTR reporter interaction score value was documented for this sequence, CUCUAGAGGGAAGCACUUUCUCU ?
## Output -0.0386

## Input What 3' UTR reporter interaction score value was documented for this sequence, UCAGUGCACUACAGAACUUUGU ?
## Output -1.23

## Input What 3' UTR reporter interaction score value was documented for this sequence, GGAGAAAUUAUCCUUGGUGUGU ?
## Output -0.364
